Protocol Text: HTRF signal interference by compounds, confirmation, artefact control for SUMOylation inhibitor project, biochemical, uHTS (AID 2069)
Condition Label: HTRF interference counterscreen, fluorescence, at 35 µM, stronger effect = higher value
Screen size: about 1,200 compounds; about 210 (18%) were called active. Not all results are given here.
Property Measured: inhibition (%)

COc1cc2c(cc1OC)-c1cc3ccc4c(c3c[n+]1CC2)OCO4    24.4
CCOc1cc(CNc2cccc3ccccc23)cc(Br)c1OCC(=O)NC(C)(C)C    12.7
O=C(NCc1ccco1)Nc1ccc2snnc2c1    38.8
Cc1ccc(Cn2nnnc2CN2CCC(NC(=O)C(C)(C)C)CC2)cc1    5.15
Cc1ccc(NC2=CC(=O)CC(c3ccco3)C2)c(N)c1 (stereo not drawn)    1
Cc1ccc(-n2nc(C)c3c2OC(N)=C(C#N)C3c2ccc(C)o2)cc1 (stereo not drawn)    -11.4
N=C1S/C(=C\c2ccc(O)cc2)C(=O)N1c1ccc(F)cc1    14.8
C=CCn1c(SCC(=O)N2N=C(c3ccco3)CC2c2ccco2)nnc1-c1ccncc1 (stereo not drawn)    -5.2
COc1ccc(S(=O)(=O)C(C#N)c2nc3ccccc3nc2N2CCC(C)CC2)cc1 (stereo not drawn)    -6
O=C(/C=C/c1ccco1)NC(=S)Nc1ccc(O)c(-c2nc3ccccc3s2)c1    9.4
O=C(CNc1ccc2ccccc2c1)N/N=C/c1cc2ccccc2nc1Cl    2.4
Cc1ccccc1NC(=O)Cn1c(O)c(N=NC(=O)c2ccccc2O)c2ccccc21    11.2
S=c1[nH]nc(-c2cc(-c3ccccc3)n[nH]2)n1/N=C/c1ccc(Br)s1    -6.25
CC(=O)Oc1ccc2cc(-c3nc4ccccc4n3C)c(=O)oc2c1    38.6
O=C(O)/C=C/c1cn(-c2ccccc2)nc1-c1cc2ccccc2o1    41.2
Cc1cc(/C=N/n2c(COc3ccccc3C)nc3ccccc3c2=O)c(O)c([N+](=O)[O-])c1    -15.5
COc1cc2cc(NC(C)=O)cc(NCc3ccccc3)c2cc1OC    -19.9
COC1=C(Nc2ccccc2)C(=O)c2ccccc2C1=O    -14.2
CCCCOc1ccc(/C=C/C(=O)Nc2ccc(C(N)=O)cc2)cc1    10.9
O=C1C(NS(=O)(=O)c2cccs2)=C(N2CCN(c3cccc(C(F)(F)F)c3)CC2)C(=O)c2ccccc21    -7.25
COc1cccc(OC)c1C(=O)N1CCNCC1    -12.3
Cc1nc2ccc(NC(=O)NCc3ccco3)cc2s1    31.5
CN(C)c1cccc2cccc(N(C)C)c12    13.3
Cc1ccc2c(SCC(=O)NCc3ccco3)nc(-c3ccc(F)cc3)nc2c1    -4.7
CCOc1ccc(/C=N/NC(=O)c2cc(-c3ccco3)nc3ccccc23)cc1    15.3
CCOC(=O)C1CCCN(c2cc(NCCCO)c([N+](=O)[O-])c3nonc23)C1 (stereo not drawn)    -8.1
N#CCCN(Cc1cccnc1)C(=S)NC1CC2C=CC1C2 (stereo not drawn)    -9.75
OC(COc1ccccc1)CSc1ncn[nH]1 (stereo not drawn)    14.6
CCOC(=O)c1c(C)oc2c1c(C=NCCO)c(O)c1ccccc12    5.4
Cc1cc[n+](-c2[nH]c(=O)sc2/C=N/N=C(\[O-])c2ccncc2)cc1    -1.55
O=C(CNc1cccc2ccccc12)c1ccc([N+](=O)[O-])cc1    -2.7
CCOC(=O)Cn1c(=NC(=O)c2sc3ccccc3c2Cl)sc2cc(S(N)(=O)=O)ccc21    8.1
O=C(COC(=O)c1cc(-c2cccs2)nc2ccccc12)NCc1ccco1    16.3
